All values here come from patent US20250188110A1.

# assay-system: UniProtKB Q9Y5N5
# assay-overview: KMT9 thermal shift assay (SyproOrange)
# Format: binding
# measurement-parameters: ΔTm; 500 µM compound, 2 μM KMT9, 5X SO; read-out: Thermal shift
quantity-kind: ΔTm at 500 µM

Some solved cases for reference:
CNc1ncnc2c1ccn2[C@@H]1C[C@H](/C=C/CCCNCCc2ccccc2)[C@@H](O)[C@H]1O	≤ 10 °C
CNc1ncnc2c1ccn2[C@@H]1C[C@H](CN(CCCNCCc2ccccc2)c2cncs2)[C@@H](O)[C@H]1O	≤ 10 °C
CNc1ncnc2c1ccn2[C@@H]1C[C@H](CNCCCNCCc2cccc(N(C)c3ccccc3)c2)[C@@H](O)[C@H]1O	10 to 15 °C

--- query ---
Prompt line: Recorded ΔTm at 500 µM of `CNc1ncnc2c1c(C)cn2[C@@H]1O[C@H](CNCCCNCCc2ccccc2)[C@@H](O)[C@H]1O` , please.
Response line: ≤ 10 °C

----------
# assay-system: KMT9 (Homo sapiens, UniProt Q9Y5N5)
# Sequence (Q9Y5N5 whole entry): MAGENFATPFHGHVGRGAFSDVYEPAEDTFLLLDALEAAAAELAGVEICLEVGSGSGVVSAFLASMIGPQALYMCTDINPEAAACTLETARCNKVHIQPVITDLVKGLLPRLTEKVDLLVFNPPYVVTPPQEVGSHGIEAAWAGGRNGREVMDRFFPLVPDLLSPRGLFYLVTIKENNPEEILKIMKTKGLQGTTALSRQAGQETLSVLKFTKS
# Sequence (Q9UI30 1-120 isoform Q9UI30-2 partner): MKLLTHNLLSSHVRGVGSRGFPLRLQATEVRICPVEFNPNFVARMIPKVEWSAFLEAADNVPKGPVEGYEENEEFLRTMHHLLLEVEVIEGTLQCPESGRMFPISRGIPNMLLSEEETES
# assay-overview: KMT9 thermal shift assay (SyproOrange)
# Type: binding
# measurement-parameters: ΔTm; 500 µM compound, 2 μM KMT9, 5X SO; read-out: Thermal shift
quantity-kind: ΔTm at 500 µM

Nc1ncnc2c1c(Br)cn2[C@@H]1C[C@H](CNCCCNCCc2cccc(F)c2)[C@@H](O)[C@H]1O	15 to 20 °C
Nc1nc(Cl)nc2c1c(-c1ccn(Cc3ccccc3)n1)cn2[C@@H]1C[C@H](C2CCNCC2)[C@@H](O)[C@H]1O	> 20 °C
CNc1ncnc2c1ccn2[C@@H]1C[C@H](COCC(=O)NCCc2ccccc2)[C@@H](O)[C@H]1O	≤ 10 °C
Nc1ncnc2c1c(C1CC1)cn2[C@@H]1C[C@H](CNCCCNCCc2cccc(Oc3ccccc3)c2)[C@@H](O)[C@H]1O	15 to 20 °C
CC(=O)N1CCC(c2cn([C@@H]3C[C@H](CNCCCNCCc4ccccc4)[C@@H](O)[C@H]3O)c3ncnc(N)c23)CC1	10 to 15 °C

Prompt line: Recorded ΔTm at 500 µM of `CNc1ncnc2c1ccn2[C@@H]1C[C@H](CNCCCNCCc2cccc(Sc3ccccc3)c2)[C@@H](O)[C@H]1O` , please.
Response line: 10 to 15 °C

Prompt line: Recorded ΔTm at 500 µM of `O[C@@H]1[C@H](O)[C@@H](C2CCNCC2)C[C@H]1n1cc2c3c(ncnc31)NCCC2` , please.
Response line: 10 to 15 °C

Prompt line: Recorded ΔTm at 500 µM of `CNc1ncnc2c1ccn2[C@@H]1C[C@H](CSCCCNCCc2ccccc2)[C@@H](O)[C@H]1O` , please.
Response line: ≤ 10 °C

Prompt line: Recorded ΔTm at 500 µM of `CN1CCC(c2cn([C@@H]3C[C@H](CNCCCNCCc4ccccc4)[C@@H](O)[C@H]3O)c3ncnc(N)c23)CC1` , please.
Response line: ≤ 10 °C

Prompt line: Recorded ΔTm at 500 µM of `Nc1ncnc2c1ncn2[C@@H]1O[C@H](C(=O)NC2CCN(CCc3ccccc3)CC2)[C@@H](O)[C@H]1O` , please.
Response line: ≤ 10 °C

Prompt line: Recorded ΔTm at 500 µM of `CNc1ncnc2c1ccn2[C@@H]1C[C@H](C(=O)NCCCNCc2ccc(Oc3ccc(Cl)cc3)c(F)c2)[C@@H](O)[C@H]1O` , please.
Response line: 10 to 15 °C

Prompt line: Recorded ΔTm at 500 µM of `CNc1ncnc2c1ccn2[C@@H]1C[C@H](COCCCNCCc2ccccc2)[C@@H](O)[C@H]1O` , please.
Response line: ≤ 10 °C

Prompt line: Recorded ΔTm at 500 µM of Nc1ncnc2c1c(-c1nc(Cc3ccccc3)cs1)cn2[C@@H]1C[C@H]([C@@H]2CCCNC2)[C@@H](O)[C@H]1O (single isomer, unassigned) [Compound 593R] , please.
Response line: 15 to 20 °C

Prompt line: Recorded ΔTm at 500 µM of `CNCCC(=O)N(C)C[C@H]1C[C@@H](n2ccc3c(NC)ncnc32)[C@H](O)[C@@H]1O` , please.
Response line: ≤ 10 °C

----------
# assay-system: KMT9 (Homo sapiens, UniProt Q9Y5N5)
# assay-overview: KMT9 thermal shift assay (SyproOrange)
# Type: binding
# measurement-parameters: ΔTm class; 500 uM compound, 2 μM KMT9; read-out: Thermal shift
quantity-kind: ΔTm at 500 µM

Prompt line: Recorded ΔTm at 500 µM of CCc1cn([C@@H]2C[C@H](c3ccccc3)[C@@H](O)[C@H]2O)c2ncnc(N)c12 [Compound 396] , please.
Response line: ≤ 10 °C

Prompt line: Recorded ΔTm at 500 µM of O[C@@H]1[C@H](O)[C@@H](C2=CCCN(CC3CC3)C2)C[C@H]1n1cc(-c2nc(Cc3ccccc3)cs2)c2cnc(Cl)nc21 [Compound 586] , please.
Response line: ≤ 10 °C

Prompt line: Recorded ΔTm at 500 µM of Nc1ncnc2c1c(-c1nc(Cc3ccccc3)cs1)cn2[C@@H]1C[C@H]([C@H]2CCNC2)[C@@H](O)[C@H]1O [Compound 589R] , please.
Response line: 10 to 15 °C

Prompt line: Recorded ΔTm at 500 µM of O[C@@H]1[C@H](O)[C@@H](C2CCN(CCc3ccccc3)CC2)C[C@H]1n1cc(-c2nc(Cc3ccccc3)cs2)c2cnc(Cl)nc21 [Compound 498] , please.
Response line: 10 to 15 °C

Prompt line: Recorded ΔTm at 500 µM of O[C@@H]1[C@H](O)[C@@H](C2CCN(CC(F)(F)F)CC2)C[C@H]1n1cc(-c2nc(Cc3ccccc3)cs2)c2cnc(Cl)nc21 [Compound 499] , please.
Response line: ≤ 10 °C

Prompt line: Recorded ΔTm at 500 µM of O[C@@H]1[C@@H](CNCCCNCCc2ccc(F)cc2)C[C@@H](n2cc(-c3cc(Cc4ccccc4)cs3)c3cncnc32)[C@@H]1O [Compound 618] , please.
Response line: 10 to 15 °C

Prompt line: Recorded ΔTm at 500 µM of O[C@@H]1[C@@H](CN(CCCNCCc2ccccc2)c2cn[nH]c2)C[C@@H](n2cc(-c3cccs3)c3cnc(Cl)nc32)[C@@H]1O [Compound 641] , please.
Response line: 15 to 20 °C

Prompt line: Recorded ΔTm at 500 µM of Nc1ncnc2c1ccn2[C@@H]1C[C@H](c2cccc(-c3cscn3)c2)[C@@H](O)[C@H]1O [Compound 654] , please.
Response line: ≤ 10 °C

Prompt line: Recorded ΔTm at 500 µM of O[C@@H]1[C@H](O)[C@@H](C2CCN(CC3CC3)CC2)C[C@H]1n1cc(-c2nc(Cc3ccccc3)cs2)c2cnc(Cl)nc21 [Compound 497] , please.
Response line: 10 to 15 °C

Prompt line: Recorded ΔTm at 500 µM of O[C@@H]1[C@H](O)[C@@H](C2=CCCN(C3CC3)C2)C[C@H]1n1cc(-c2nc(Cc3ccccc3)cs2)c2cnc(Cl)nc21 [Compound 587] , please.
Response line: ≤ 10 °C

Prompt line: Recorded ΔTm at 500 µM of Nc1ncnc2c1ccn2[C@@H]1C[C@H](c2cccc(-c3cnsc3)c2)[C@@H](O)[C@H]1O [Compound 650] , please.
Response line: ≤ 10 °C

Prompt line: Recorded ΔTm at 500 µM of CN(CCCNCCc1ccccc1)C[C@H]1C[C@@H](n2cc(-c3cc(Cc4ccccc4)cs3)c3cncnc32)[C@H](O)[C@@H]1O [Compound 620] , please.
Response line: 10 to 15 °C

Prompt line: Recorded ΔTm at 500 µM of Nc1ncnc2c1ccn2[C@@H]1C[C@H](c2cccc(-c3cccnc3)c2)[C@@H](O)[C@H]1O [Compound 649] , please.
Response line: ≤ 10 °C

----------
# assay-system: KMT9 (Homo sapiens)
# assay-overview: Microscale thermophoresis (MST) KMT9 binding
# measurement-parameters: His-tag labelled KMT9 20 nM; Kd class; read-out: MST
pKd: −log10 of the molar value.
As shown below, each of these compounds has a reported pKd value.

Nc1ncnc2c1ccn2[C@@H]1C[C@H](c2cccc(-c3cncs3)c2)[C@@H](O)[C@H]1O	< 6.00
Nc1ncnc2c1ccn2[C@@H]1C[C@H](c2ccn[nH]2)[C@@H](O)[C@H]1O	< 6.00
O[C@@H]1[C@H](O)[C@@H](C2CCCN(CCc3ccccc3)C2)C[C@H]1n1cc(-c2nc(Cc3ccccc3)cs2)c2cnc(Cl)nc21 (stereo partly shown)	< 6.00
O[C@@H]1[C@H](O)[C@@H](C2CCN(CC3CC3)CC2)C[C@H]1n1cc(-c2nc(Cc3ccccc3)cs2)c2cnc(Cl)nc21	7.00 to 8.00
Nc1ncnc2c1c(-c1nc(Cc3ccccc3)cs1)cn2[C@@H]1C[C@H]([C@@H]2CCNC2)[C@@H](O)[C@H]1O [Compound 589S]	6.00 to 7.00
CN1CCC=C([C@H]2C[C@@H](n3cc(-c4nc(Cc5ccccc5)cs4)c4cnc(Cl)nc43)[C@H](O)[C@@H]2O)C1	6.00 to 7.00

--- query ---
Prompt line: Recorded pKd of `Nc1ncnc2c1c(Br)cn2[C@@H]1C[C@H](c2ccccc2)[C@@H](O)[C@H]1O` , please.
Response line: < 6.00
